System: PDC 899932-113-R3-J6 complex spheroid viability
Test: Anticancer human tumor 899932-113-R3-J6-PDC patient-derived melanoma cell line growth inhibition [RAS]
Details: second compound 0.01 µM; first compound 0.01 µM; stronger effect = lower value

{"Compound": "C=CC(=O)Nc1cc(Nc2nccc(-c3cn(C)c4ccccc34)n2)c(OC)cc1N(C)CCN(C)C + C=CC(=O)N1CCN(c2nc(OCC3CCCN3C)nc3c(F)c(-c4nc(N)cc(C)c4C(F)(F)F)c(Cl)cc23)C(C)C1", "Assayed target": "PDC 899932-113-R3-J6 complex spheroid viability", "viability, T/C / %": 99.4}
{"Compound": "CCN1CCN(Cc2ccc(Nc3ncc(F)c(-c4cc(F)c5nc(C)n(C(C)C)c5c4)n3)nc2)CC1 + C=CC(=O)N1CCN(c2nc(OCC3CCCN3C)nc3c(F)c(-c4nc(N)cc(C)c4C(F)(F)F)c(Cl)cc23)C(C)C1", "Assayed target": "PDC 899932-113-R3-J6 complex spheroid viability", "viability, T/C / %": 98.5}
{"Compound": "Nc1ccn(C2OC(CO)C(O)C2(F)F)c(=O)n1 (stereo not given) + C=CC(=O)N1CCN(c2nc(OCC3CCCN3C)nc3c(F)c(-c4nc(N)cc(C)c4C(F)(F)F)c(Cl)cc23)C(C)C1", "Assayed target": "PDC 899932-113-R3-J6 complex spheroid viability", "viability, T/C / %": 73.5}
{"Compound": "O=C(c1ccc(F)c(F)c1Nc1ccc(I)cc1F)N1CC(O)([C@@H]2CCCCN2)C1 + C=CC(=O)N1CCN(c2nc(OCC3CCCN3C)nc3c(F)c(-c4nc(N)cc(C)c4C(F)(F)F)c(Cl)cc23)C(C)C1", "Assayed target": "PDC 899932-113-R3-J6 complex spheroid viability", "viability, T/C / %": 33}
{"Compound": "CC(C)n1nc(-c2ccc3oc(N)nc3c2)c2c(N)ncnc21 + C=CC(=O)N1CCN(c2nc(OCC3CCCN3C)nc3c(F)c(-c4nc(N)cc(C)c4C(F)(F)F)c(Cl)cc23)C(C)C1", "Assayed target": "PDC 899932-113-R3-J6 complex spheroid viability", "viability, T/C / %": 115}

###

Test system: PDC 899932-113-R3-J6 complex spheroid viability
Assay: Anticancer human tumor 899932-113-R3-J6-PDC cell line growth inhibition [RAS]
Conditions: curve of first compound; second compound 0.0316 µM
pIC50: −log10 of the molar value.
Recorded pIC50 for the following molecules

{"Molecule": "CCc1c2c(nc3ccc(O)cc13)-c1cc3c(c(=O)n1C2)COC(=O)[C@]3(O)CC + C=CC(=O)N1CCN(c2nc(OCC3CCCN3C)nc3c(F)c(-c4nc(N)cc(C)c4C(F)(F)F)c(Cl)cc23)C(C)C1", "Assayed target": "PDC 899932-113-R3-J6 complex spheroid viability", "Qualifier sign": "=", "pIC50": 7.48}
{"Molecule": "Cc1nc(N2CCC3(CC2)COC(C)C3N)c(CO)nc1Sc1ccnc(N)c1Cl (stereo not drawn) + C=CC(=O)N1CCN(c2nc(OCC3CCCN3C)nc3c(F)c(-c4nc(N)cc(C)c4C(F)(F)F)c(Cl)cc23)C(C)C1", "Assayed target": "PDC 899932-113-R3-J6 complex spheroid viability", "Qualifier sign": "<", "pIC50": 5.00}
{"Molecule": "CC1(O)CCCC1n1c(=O)c(C(F)F)cc2cnc(NC3CCN(S(C)(=O)=O)CC3)nc21 (stereo not drawn) + C=CC(=O)N1CCN(c2nc(OCC3CCCN3C)nc3c(F)c(-c4nc(N)cc(C)c4C(F)(F)F)c(Cl)cc23)C(C)C1", "Assayed target": "PDC 899932-113-R3-J6 complex spheroid viability", "Qualifier sign": "=", "pIC50": 5.61}
